ASSAY_SUMMARY: yeast display, Sf9 membrane polyspecificity reagent, FACS + sequencing; frameworks hold sequencing errors
READOUT_LABEL: polyreactivity (PSR sort gate)

SEQ_TEXT: QVQLVESGGGLVQAGGSLRLSCAASGYIFNKYVMGWYRQAPGKERELVAAISASGGSTYYADSVKGRFTISRDNAKNTVYLQMNSLKPEDTSVYYCAATLYRRMDYWGQGTQVTVSS
RESULT: high polyreactivity
--
SEQ_TEXT: QVQLVESGGGLVQAGGSLRLSCAASGSIFPFYAMGWYRQAPGKERELVAAITYSGGSTFYADSVKGRFTISRDNAKNTVYLQMNSLKPEDTAVYYCNAVWRFGSSKYYYWGHGTQVTVSS
RESULT: high polyreactivity
--
SEQ_TEXT: QVQLVESGGGLVQAGGSLRLSCAASGRTFSAYAMGWYRQATGQERELVAAISRSGGSTYYADSVKGRFTISRDNAKNTVYLQMNSLKPEDTAVYYCAAKGGSGLYNWGQGTQVTVSS
RESULT: high polyreactivity
--
SEQ_TEXT: QVQLVESGGGLVQAGGSLRLSCAASGSTFYVNAMGWNRQAPGKEREFVAAISWSGGSTYYADSVKGRFTISRDNAKNTVYLQMNSLKPEDTAVYYCAADRVRKDGVLFDYWGQGTQVTVSS
RESULT: high polyreactivity

---

ASSAY_SUMMARY: yeast display, Sf9 membrane polyspecificity reagent, FACS + sequencing; frameworks hold sequencing errors
READOUT_LABEL: polyreactivity (PSR sort gate)

Example sequences with recorded polyreactivity (PSR sort gate):
SEQ_TEXT: QVQLVESGVGLVQAGGSLRLSCAASGSIFYHYVMGWYRQAPGKERELVAGISWSGVSTYYADSVKGRFTISRDNAKNTVYLQMNSLKPEDTADYYCAAVYRQSRLHTFGYWGQGTQVTVSS
polyreactivity (PSR sort gate): high polyreactivity

SEQ_TEXT: QVQLVESGGGLVQAGGSLRLSCAASGSTFRNYAMGWYRQAPGKERELVAAISGSGGRTNYADSVKGRFTISRDNAKNTVYLQMNSLKPEDNAVYYCNARFPDWALSEISHSTTYGYWGQGTQVTVSS
polyreactivity (PSR sort gate): low polyreactivity

SEQ_TEXT: QVQLVESGGGLVQAGGSLRLSCAASGSTFYPYAMGWYRQAPGKERELVAAISSGGSTSYADSVKGRFTISRDNAKNTFYLQMNSLKPEDTAVYYCNASSPGAVPVYDYDYWGQGTQVTVSS
polyreactivity (PSR sort gate): low polyreactivity

SEQ_TEXT: QVQLVESGGGLVHAGGSLRLSCAASGFILTGNAMGWYRQAPGKERELVAAITSGGRTYYADSVKGRFTISRDNAKNTVYLQMNSLKPEETAVYYCAARRRWSQTPFDYWGQGTQVTVSS
polyreactivity (PSR sort gate): high polyreactivity

Then there is this sequence:
// query Please supply the value of reported polyreactivity (PSR sort gate) for the item QVQLVESGGGLVQAGGSLRLSCAASGSTFWQYAMGWYRQAPGKERELVAAISYSGGSTYYADSVKGRFTISRDNAKNTVYLQMNSLKPEDTAVYYCAKEYNVGFYLVFNRFDYWGQGTQVTVSS
// result low polyreactivity

---

ASSAY_SUMMARY: yeast display, Sf9 membrane polyspecificity reagent, FACS + sequencing; frameworks hold sequencing errors
READOUT_LABEL: polyreactivity (PSR sort gate)

// solved cases for polyreactivity (PSR sort gate) follow
SEQ_TEXT: QVQRVESGGGLVQAGGRLRLSSAASGSIFGRYGMGWYRQAPGKDRELVAAITSGTRRNYADSVKGRFTISRDNAKNTVYLQMNSLKPEDTAVYYCNAVRLRGNYEYGYWGLGTQVTVSS
READOUT_LABEL: polyreactivity (PSR sort gate)
RESULT: low polyreactivity
--
SEQ_TEXT: QVQLVESGGGLVQAGGSLRLSCAASGSIFTRYAMGWYRQAPGKDRELDADIRWGGGDTYYADSVKGRFTNSRDNAKNTVYLQMNSLTPEDTAVYYCNADHTFIKYYPDWGDYGRDYDYWGQGTQVTVSS
READOUT_LABEL: polyreactivity (PSR sort gate)
RESULT: low polyreactivity
--
SEQ_TEXT: QVQLVESGGGLVQAGGSLRLSCAASGITFYSNAMGWYRQAPGKERELVATITRGGSTYYADSVKGRFTISRDNAKNTVYLQMNSLKPEDTAVYYCAADYSYRGREYGYWGQGTQVTVSS
READOUT_LABEL: polyreactivity (PSR sort gate)
RESULT: low polyreactivity
--
SEQ_TEXT: QVQLVESGGGLVQAGGSLRLSCAASGSTFYSYAMGWYRQAPGKEREFVAAIRYSGGRTYADSVKGRFTISRDNAKNTVYLQMNSLKPEDTAVYYCAAVYYSYRWPYDYWGQGTQVTVSS
READOUT_LABEL: polyreactivity (PSR sort gate)
RESULT: high polyreactivity

// query Supply recorded polyreactivity (PSR sort gate) for QVQLVESGGGLVQAGGSLRLSCDASGRIFRGYAMGWYRKAPGKERELVAAISGRGGRTNYADSVKGRFTISRDNAKNTVYLQMNSLKTEDTAVYYCAVKRLSYPYVGHYYFWGQGTQVTVSS here.
// result high polyreactivity
